MEASURED ENDPOINT: HepSE_Combined Scores
Reply: number alone, nothing else.

QUERY: For the record NCC(CC(=O)O)c1ccc(Cl)cc1 (stereo not given) , what value of HepSE_Combined Scores is listed for Hepatotoxicity?
RESULT: 0

QUERY: Form entry - test system: Hepatotoxicity; read-out: HepSE_Combined Scores; compound: `CN[C@@H]1[C@H](O)[C@H](NC)[C@H]2O[C@@]3(O)C(=O)C[C@@H](C)O[C@H]3O[C@@H]2[C@H]1O`
RESULT: 0

QUERY: Test system Hepatotoxicity; read-out HepSE_Combined Scores; what value for CC1(C)O[C@@H]2C[C@H]3[C@@H]4C[C@H](F)C5=CC(=O)CC[C@]5(C)[C@H]4[C@@H](O)C[C@]3(C)[C@]2(C(=O)CO)O1 [FLURANDRENOLIDE] ?
RESULT: 0

QUERY: API: value(readout= HepSE_Combined Scores, system= Hepatotoxicity, query= `Nc1ncnc2c1ncn2[C@@H]1O[C@H](CO)[C@@H](O)[C@H]1O` )
RESULT: 0

QUERY: // lookup HepSE_Combined Scores | system=Hepatotoxicity | key= `CNCC[C@@H](Oc1ccccc1C)c1ccccc1`;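 further: combined hepatic side effect score as listed in the training data of the Drug Induced Liver Injury Prediction System (DILIps)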
RESULT: 1

---

Below are HepSE_Combined Scores values measured for Hepatotoxicity.

QUERY: Return reported HepSE_Combined Scores; argument: CN1C2CCCC1CC(NC(=O)c1nn(C)c3ccccc13)C2 (configuration not stated) [GRANISETRON]
RESULT: 3

QUERY: Entry OC[C@@H](O)[C@@H](O)[C@H](O)[C@H](O)CO [MANNITOL] : reported HepSE_Combined Scores = ?
RESULT: 0

QUERY: Name the reported HepSE_Combined Scores value associated with the compound C[N+](C)(C)CC(O)CC(=O)[O-] (configuration not stated) [CARNITINE]
RESULT: 0

QUERY: Please look up its HepSE_Combined Scores: CC(C)(C)NC[C@H](O)COc1cccc2c1CCCC2=O [LEVOBUNOLOL]
RESULT: 0

QUERY: Query: HepSE_Combined Scores; subject: Nc1nc(Cl)nc2c1ncn2[C@@H]1O[C@H](CO)[C@@H](O)[C@@H]1F [CLOFARABINE]
RESULT: 3

QUERY: HepSE_Combined Scores lookup needed for Cc1cccc(Nc2ccncc2S(=O)(=O)NC(=O)NC(C)C)c1 [TORSEMIDE] , thanks.
RESULT: 2

QUERY: Sample CN(C)C(=O)Oc1ccc[n+](C)c1 [PYRIDOSTIGMINE] — what was its HepSE_Combined Scores?
RESULT: 0

QUERY: Quick one: HepSE_Combined Scores for CCN(CC)CCN1C(=O)CN=C(c2ccccc2F)c2cc(Cl)ccc21 [FLURAZEPAM] ?
RESULT: 0

QUERY: State the recorded HepSE_Combined Scores for this entry: CCN1CCN(C(=O)N[C@@H](C(=O)N[C@@H]2C(=O)N3C(C(=O)O)=C(CSc4nnnn4C)CS[C@H]23)c2ccc(O)cc2)C(=O)C1=O [CEFOPERAZONE]
RESULT: 2

QUERY: Any idea what HepSE_Combined Scores was measured for CCCCNc1cc(C(=O)O)cc(S(N)(=O)=O)c1Oc1ccccc1 [BUMETANIDE] ?
RESULT: 1

QUERY: Fill in the blank: the reported HepSE_Combined Scores of C[C@@H](O[C@H]1OCCN(Cc2n[nH]c(=O)[nH]2)[C@H]1c1ccc(F)cc1)c1cc(C(F)(F)F)cc(C(F)(F)F)c1 [APREPITANT] is ____.
RESULT: 0

QUERY: For CCCCCCCC(=O)CC[C@@H]1[C@@H](C/C=C\CCCC(=O)O)[C@@H](O)C[C@H]1O [UNOPROSTONE] , what is its reported HepSE_Combined Scores?
RESULT: 0

QUERY: If you can, please state the reported HepSE_Combined Scores value of O=C1NC(c2ccccc2)(c2ccccc2)C(=O)N1COP(=O)(O)O [FOSPHENYTOIN] .
RESULT: 1

QUERY: Which measured HepSE_Combined Scores value corresponds to C=C(CC)C(=O)c1ccc(OCC(=O)O)c(Cl)c1Cl [ETHACRYNIC ACID] ?
RESULT: 2

QUERY: May I ask what HepSE_Combined Scores has been recorded for `COc1ccc(C[C@@H]2c3cc(OC)c(OC)cc3CC[N@+]2(C)CCC(=O)OCCCCCOC(=O)CC[N@@+]2(C)CCc3cc(OC)c(OC)cc3[C@H]2Cc2ccc(OC)c(OC)c2)cc1OC` ?
RESULT: 0

QUERY: Dear colleague, I am looking for the recorded HepSE_Combined Scores of the following compound: OCc1cc(C(O)CNCCCCCCOCCCCc2ccccc2)ccc1O (configuration not stated) [SALMETEROL]
RESULT: 0

QUERY: What value of HepSE_Combined Scores has been recorded for this entry: Cc1nnc(SCC2=C(C(=O)O)N3C(=O)[C@@H](NC(=O)Cn4cnnn4)[C@H]3SC2)s1 [CEFAZOLIN]
RESULT: 1

QUERY: Tell me the measured HepSE_Combined Scores of CN1CCc2cccc3c2[C@H]1Cc1ccc(O)c(O)c1-3 [APOMORPHINE] , please.
RESULT: 0

QUERY: Item Clc1ccc(COC(Cn2ccnc2)c2ccc(Cl)cc2Cl)c(Cl)c1 (configuration not stated) [MICONAZOLE] has what recorded HepSE_Combined Scores?
RESULT: 0

QUERY: Which value of HepSE_Combined Scores has been reported for NCCC(O)(P(=O)(O)O)P(=O)(O)O [PAMIDRONIC ACID] in the records?
RESULT: 1

QUERY: Looking for the measured HepSE_Combined Scores of COc1ccc(C(CN(C)C)C2(O)CCCCC2)cc1 (configuration not stated) [VENLAFAXINE] , can you help?
RESULT: 7

QUERY: I'd like to know its HepSE_Combined Scores. The compound in question is CO/N=C(\C(=O)N[C@@H]1C(=O)N2C(C(=O)O)=C(COC(C)=O)CS[C@H]12)c1csc(N)n1 [CEFOTAXIME]
RESULT: 2

QUERY: Query: HepSE_Combined Scores; subject: CC[C@@H]([C@H](C)O)n1ncn(-c2ccc(N3CCN(c4ccc(OC[C@@H]5CO[C@@](Cn6cncn6)(c6ccc(F)cc6F)C5)cc4)CC3)cc2)c1=O [POSACONAZOLE]
RESULT: 6

QUERY: Dear colleague, I am looking for the recorded HepSE_Combined Scores of the following compound: `CCOC(=O)[C@H](CCc1ccccc1)N[C@@H](C)C(=O)N1CCC[C@H]1C(=O)O`
RESULT: 3

QUERY: Query (compound): CO/N=C(\C(=O)N[C@@H]1C(=O)N2C(C(=O)O)=C(CSc3nc(=O)c(=O)[nH]n3C)CS[C@H]12)c1csc(N)n1 [CEFTRIAXONE] ; field requested: HepSE_Combined Scores
RESULT: 0

QUERY: Could you tell me which HepSE_Combined Scores is on file for NS(=O)(=O)Cc1noc2ccccc12 [ZONISAMIDE] ?
RESULT: 3

QUERY: Quick one: HepSE_Combined Scores of C=C1/C(=C\C=C2/CCC[C@]3(C)[C@@H]([C@H](C)/C=C/[C@@H](O)C4CC4)CC[C@@H]23)C[C@@H](O)C[C@@H]1O [CALCIPOTRIENE] ?
RESULT: 0

QUERY: Entry Clc1ccc2c(c1)C(N1CCNCC1)=Nc1ccccc1O2 [AMOXAPINE] has what HepSE_Combined Scores?
RESULT: 2

QUERY: If you can, please state the reported HepSE_Combined Scores value of CO[C@H]1/C=C/O[C@@]2(C)Oc3c(C)c(O)c4c(O)c(c5c(nc6cc(C)ccn65)c4c3C2=O)NC(=O)/C(C)=C\C=C\[C@H](C)[C@H](O)[C@@H](C)[C@@H](O)[C@@H](C)[C@H](OC(C)=O)[C@@H]1C [RIFAXIMIN] .
RESULT: 0

QUERY: What measured HepSE_Combined Scores goes with CC(=O)[C@@]1(O)CC[C@H]2[C@@H]3C[C@H](C)C4=CC(=O)C=C[C@]4(C)[C@@]3(F)[C@@H](O)C[C@@]21C [FLUOROMETHOLONE] ?
RESULT: 0

QUERY: Entry C[C@]12CCC(=O)C=C1CC[C@@H]1[C@@H]2C(=O)C[C@@]2(C)[C@H]1CC[C@]2(O)C(=O)CO [CORTISONE] has what HepSE_Combined Scores?
RESULT: 0

QUERY: Returns the measured HepSE_Combined Scores for the input compound. Input: c1ccc2c(c1)CCCC2C1=NCCN1 (configuration not stated) [TETRAHYDROZOLINE]
RESULT: 0

Data origin: ChEMBL document CHEMBL1909294
